# System: CCRF-CEM
# assay details: NCI 60 cell line five dose, Leukemia
# applied conditions: read-out: LC50, molar
endpoint label: CC50

Query block: May I ask what CC50 has been recorded for `C=C1C(=O)O[C@H]2[C@H]1CC/C(COC(=O)NCCCCCCCCNC(=O)OC/C1=C/CC[C@@]3(C)O[C@H]3[C@H]3OC(=O)C(=C)[C@@H]3CC1)=C\CC[C@@]1(C)O[C@@H]21` ?
Result block: > 100 µM

* * *

CC50 tested on SF-268: recorded values
Give bare numbers, in µM.

- C=C1C(=O)O[C@H]2[C@H]1CC/C(COC(=O)CCC(=O)NCCCCCCCCNC(=O)CCC(=O)OC/C1=C/CC[C@@]3(C)O[C@H]3[C@H]3OC(=O)C(=C)[C@@H]3CC1)=C\CC[C@@]1(C)O[C@@H]21 [JVM 2-87]: 42.4

Moving on to the next compound.
Query block: May I ask what CC50 has been recorded for C=C1C(=O)O[C@H]2[C@H]1CC/C(COC(=O)CCC(=O)NCCCCCCCCCNC(=O)CCC(=O)OC/C1=C/CC[C@@]3(C)O[C@H]3[C@H]3OC(=O)C(=C)[C@@H]3CC1)=C\CC[C@@]1(C)O[C@@H]21 [JVM 2-92] ?
Result block: 42.4

* * *

# System: UACC-62
# assay details: NCI 60 cell line five dose, Melanoma
# applied conditions: read-out: LC50, molar
endpoint label: CC50 (µM)
Give bare numbers, in µM.

Query block: Give the reported CC50 for `C=C1C(=O)O[C@H]2[C@H]1CC/C(COC(=O)NCCCCCCCCNC(=O)OC/C1=C/CC[C@@]3(C)O[C@H]3[C@H]3OC(=O)C(=C)[C@@H]3CC1)=C\CC[C@@]1(C)O[C@@H]21` (system: UACC-62).
Result block: 1.72

* * *

CC50 tested on SK-MEL-28: recorded values

• C=C1C(=O)O[C@H]2[C@H]1CC/C(COC(=O)CCC(=O)NCCCCCCCCCNC(=O)CCC(=O)OC/C1=C/CC[C@@]3(C)O[C@H]3[C@H]3OC(=O)C(=C)[C@@H]3CC1)=C\CC[C@@]1(C)O[C@@H]21 [JVM 2-92] = 6.22 µM

Moving on to the next molecule.
Query block: May I ask what CC50 has been recorded for C=C1C(=O)O[C@H]2[C@H]1CC/C(COC(=O)CCC(=O)NCCCCCCCCNC(=O)CCC(=O)OC/C1=C/CC[C@@]3(C)O[C@H]3[C@H]3OC(=O)C(=C)[C@@H]3CC1)=C\CC[C@@]1(C)O[C@@H]21 [JVM 2-87] ?
Result block: 6.32 µM

* * *

# Test system: BT-549
# assay details: NCI 60 cell line five dose, Breast Cancer
# applied conditions: read-out: LC50, molar
endpoint label: CC50 (µM)
Give bare numbers, in µM.

Query block: May I ask what CC50 has been recorded for `C=C1C(=O)O[C@H]2[C@H]1CC/C(COC(=O)NCCCCCCCCNC(=O)OC/C1=C/CC[C@@]3(C)O[C@H]3[C@H]3OC(=O)C(=C)[C@@H]3CC1)=C\CC[C@@]1(C)O[C@@H]21` ?
Result block: 3.57

* * *

# System: HS 578T
# assay details: NCI 60 cell line five dose, Breast Cancer
# applied conditions: read-out: LC50; HS 578T
endpoint label: CC50

Query block: May I ask what CC50 has been recorded for C=C1C(=O)O[C@H]2[C@H]1CC/C(COC(=O)NCCCCCNC(=O)OC/C1=C/CC[C@@]3(C)O[C@H]3[C@H]3OC(=O)C(=C)[C@@H]3CC1)=C\CC[C@@]1(C)O[C@@H]21 [JVM 2-76] ?
Result block: > 100 µM
